The measurements presented in this section are drawn from patent US9980943B2.

Task for the reader: assign each of the following molecules its reported CMV-LACZ in Myotubes, signal relative to DMSO.
Test system: β-galactosidase in CMV-LacZ C2C12 myotubes
protocolDetails: CMV-LacZ secondary screen in C2C12 myotubes (β-Gal stabilizing assay)
Type: cell-based, mouse
assayContext: 20 uM; C2C12 CMV-LacZ myotubes; fold relative to DMSO

# CMV-LACZ in Myotubes, signal relative to DMSO lookup, item "O=C(N/N=C/c1cn[nH]c1-c1ccc(F)cc1)c1ccncc1"
0.8864

# CMV-LACZ in Myotubes, signal relative to DMSO lookup, item "Cc1ccc(-c2nc(C)sc2CC(=O)OCC(=O)Nc2c(F)cccc2F)cc1"
1.085

# CMV-LACZ in Myotubes, signal relative to DMSO lookup, item "CCNC(=O)CSc1nc(-c2ccc(F)cc2)cs1"
1.056

# CMV-LACZ in Myotubes, signal relative to DMSO lookup, item "O=C(Nc1ccc(Cl)cc1N1CCOCC1)C1CCCCC1"
0.8814

# CMV-LACZ in Myotubes, signal relative to DMSO lookup, item "Cc1nnc(-c2ccc(N3CCOCC3)c([N+](=O)[O-])c2)o1"
0.9976

# CMV-LACZ in Myotubes, signal relative to DMSO lookup, item "Br.COc1ccc(C(=O)CN2CCCCC2)cc1"
0.9653

# CMV-LACZ in Myotubes, signal relative to DMSO lookup, item Cc1cc([N+](=O)[O-])ccc1NC(=O)C(C)N1CCN(c2ccccn2)CC1 (stereo not drawn)
0.9656

# CMV-LACZ in Myotubes, signal relative to DMSO lookup, item "COc1ccc(S(=O)(=O)N2CCCCCC2)cc1C(=O)N1CCN(c2ccccc2O)CC1"
0.992

# CMV-LACZ in Myotubes, signal relative to DMSO lookup, item "COc1ccc(Cl)cc1NC(=O)c1cc(-c2cc(C)ccc2O)n[nH]1"
0.9988
